Pseudo Neut, B1.1.7 IC50 (pM) reference
target: SARS-CoV-2 spike protein, B1.1.7 (alpha variant), borne on lentiviral pseudovirus (SARS-CoV-2, B1.1.7); assay: cell-based or functional assay
Assay Metric: Pseudo Neut, B1.1.7 IC50 (pM)

Binder	Assay Metric	Result
antibody 2892 (antibody, V domains shown) VH: QVQLVQSGAEVKKPGSSVKVSCKASGDAFISYAISWVRQAPGQGLEWMGGIIPIFGTANYAQKFQGRVTISADESTSTAYMELSRLRSEDTAVYYCARGGPEPYGSGSGYTPRYNWFDPWGQGTLVTVSS VL: QSALTQPRSVSGSPGQSVTISCTGTSSDVGGYNYVSWYQQHPGKAPKFMIYDVNRRPSGVPDRFSGSKSGNTASLTISGLQAEDEADYYCCSYAGTYTWVFGGGTKLTVL	Pseudo Neut, B1.1.7 IC50 (pM)	~13 pM
antibody 2075 (antibody, V domains shown) VH: QVQLVQSGAEVKKPGSSVKVSCTASGGTFSIYAFSWVRQAPGQGLEWMGGIIPISGTAGYAQKFQGRVTITADESTSTAYMELSSLRSEDTAIYYCARKYRYCSGSRCYTYFDYWGQGTLVTVSS VL: DIQMTQSPSSLSASVGDRVTITCRASQSISSFLNWYQQKPGKAPKLLIYAASSLQSGVPSRFSGSGSGTDFTLTISSLQPEDSATYYCQQSYSTITFGQGTRLEIK	Pseudo Neut, B1.1.7 IC50 (pM)	~7 pM
antibody 4441 (antibody, V domains shown) VH: EVQLVESGGGLVQPGRSLRLSCAASGLTFEDYAMHWVRQPPGKGLEWVSGVSWNSGTIGYADSVKGRFTISRDNAKNSLYLHMRSLGAEDTAMYYCAKDMGGRFSFFSLENDAFDIWGQGTMVIVSS VL: SYELTQPPSVSVSPGQTARITCSGDALPKQSTYWYQQKPGQAPVLVIYKDIERPSGIPERFSGSSSGTTVTLTISGVQAEDEADYYCQSADSSDTYVFGTGTKVTVL	Pseudo Neut, B1.1.7 IC50 (pM)	~13 pM
